Recorded measurements of half-life at 1 µM, one per entry
experiment_notes: Metabolic stability in pooled human liver microsomes
Assay type: in vitro ADME
study_conditions: human, pooled human liver microsomes, pH 7.6, human liver microsomes, 1 mg/mL protein, 1 μM compound, 37° C.; read-out: Half-life t½ human

Cc1cnc2c(C(=O)NC3(c4ccc(C(F)(F)F)cc4F)CCOCC3(C)O)cnn2c1 (single isomer, unassigned) [Example 83a] ... > 130 min
Cc1nn2cc(C3CC3)cnc2c1C(=O)NC1(c2ccc(C(F)(F)F)cn2)CCOCC1 ... > 130 min
Cc1cnc2c(C(=O)NC3(c4ccc(C(F)(F)F)cc4F)CCOCC3O)cnn2c1 (single isomer, unassigned) [Example 81a] ... > 130 min
O=C(NC1(c2ccc(C(F)(F)F)cc2F)CCOCC1)c1cnn2cc(F)cnc12 ... 72 min
Cc1cnc2c(C(=O)NC3(c4ccc(C(F)(F)F)cc4F)CCOCC3)cnn2c1 ... 120 min
Cc1nn2cc(C3CC3)cnc2c1C(=O)NC1(c2ccc(C(F)(F)F)nc2)CCOCC1O (racemic) [Example 51] ... > 130 min
Cc1nn2cc(C3CC3)cnc2c1C(=O)NC1(c2ccc(C(F)(F)F)nc2)CCOCC1O (single isomer, unassigned) [Example 88b] ... > 130 min
O=C(NC1(c2ccc(C(F)(F)F)cc2)CCOC1)c1cnn2cc(C3CC3)cnc12 (racemic) ... > 130 min
Cc1nn2cc(C3CC3)cnc2c1C(=O)NC1(c2ccc(C(F)(F)F)nc2)CCOCC1 ... > 130 min
Cc1cnc2c(C(=O)NC3(c4ccc(C(F)(F)F)cc4F)CCOCC3O)cnn2c1 (racemic) [Example 46] ... > 130 min

Asked: I'd like to know its half-life at 1 µM. The compound in question is Cc1nn2cc(C3CC3)cnc2c1C(=O)NC1(c2ncc(C(F)(F)F)cc2F)CCOCC1
Given back: > 130 min

Asked: What do we get for O=C(NC1(c2ccc(C(F)(F)F)cc2F)CCOCC1O)c1cnn2cc(C3CC3)cnc12 (single isomer, unassigned) [Example 82a] ?
Given back: > 130 min

====

experiment_notes: Plasma protein binding with equilibrium dialysis, rat plasma
Assay type: in vitro ADME
study_conditions: rat, pooled rat plasma (with NaEDTA), pH 7.4, rat plasma, equilibrium dialysis 2 hours 37° C., read-out: PPB RAT % BINDING (converted)
parameter: fraction unbound at 2 h, 1 µM

Cc1nn2cc(C3CC3)cnc2c1C(=O)NC1(c2ccc(C(F)(F)F)cn2)CCOCC1 ... 0.128
Cc1cnc2c(C(=O)NC3(c4ccc(C(F)(F)F)cc4F)CCOCC3(C)O)cnn2c1 (single isomer, unassigned) [Example 83a] ... 0.178
Cc1cnc2c(C(=O)NC3(c4ccc(C(F)(F)F)cc4F)CCOCC3)cnn2c1 ... 0.053
O=C(NC1(c2ccc(C(F)(F)F)cc2F)CCOCC1O)c1cnn2cc(C3CC3)cnc12 (single isomer, unassigned) [Example 82a] ... 0.135
Cc1cnc2c(C(=O)NC3(c4ccc(C(F)(F)F)cc4F)CCOCC3O)cnn2c1 (racemic) [Example 46] ... 0.313
Cc1cnc2c(C(=O)NC3(c4ccc(C(F)(F)F)cc4F)CCOC3)cnn2c1 (racemic) ... 0.063
Cc1nn2cc(C3CC3)cnc2c1C(=O)NC1(c2ccc(C(F)(F)F)nc2)CCOCC1 ... 0.169
O=C(NC1(c2ccc(C(F)(F)F)cc2)CCOC1)c1cnn2cc(C3CC3)cnc12 (racemic) ... 0.065

1. Cc1cnc2c(C(=O)NC3(c4ccc(C(F)(F)F)cc4F)CCCOC3)cnn2c1 (racemic)
2. Cc1cnc2c(C(=O)NC3(c4ccc(C(F)(F)F)cc4F)CCOCC3O)cnn2c1 (single isomer, unassigned) [Example 81a]
3. CC1(O)COCCC1(NC(=O)c1cnn2cc(C3CC3)cnc12)c1ccc(C(F)(F)F)cc1F (single isomer, unassigned) [Example 86a]
4. Cc1nn2cc(C3CC3)cnc2c1C(=O)NC1(c2ncc(C(F)(F)F)cc2F)CCOCC1
Asked: hey, can you rank those compounds up there by fraction unbound at 2 h, 1 µM? biggest number first please When ranking, write the labels in the order the request describes.
Given back: 2, 4, 3, 1

Where these numbers come from: patent US10023575B2
